Please respond with reported Kd for every item in the list.
Target: SARS-CoV-2 prefusion-stabilized spike protein (SARS-CoV-2-PreS) (SARS-CoV-2, UniProt P0DTC2 14-1208)
Experiment: Biacore, apparent affinity

11F5 VHH (VHH) VHH: QVQLVESGGGAVQAGDSLRLSCTASGRTFSTYAVGWFRQAPGKERELLAAITGSGRNPYYPDSLKGRFTISREYAKLPVYLQMNSLKPEDTAVYYCAARRGAIATMPLDYDHWGQGTQVTVSS: 8 nM
14F3 VHH-Fc (Fc fusion) QVQLVESGGGLVQAGGSLRLSCAASGRTSSIYGVGWFRQAPGKERELVALITWSGGTTYYSDSVKGRFTISKDNAKNTVFLQMNNLKPEDTAIYYCAVDTYSMTMSARDYEYWGQGTQVTVSS: < 0.2 nM
3D4 VHH-Fc (Fc fusion) QVQLVESGGGLVQPGGSLRLSCAASGFTLDLNSIGWFRQAPGKEREGVSCISPSGSRMHYADSVKGRFTISRDNAKNTVYLQMNSLKPEDTAVYYCATGSPSYHYCSMYGLEYDSWGQGTQVTVPS: < 0.2 nM

As a next step, examine the binder that follows.
Input: I would be grateful if you could share the reported Kd for 1A11 VHH (VHH) VHH: QVQLVESGGGLVQAGGSLRLSCEVSGSIYSINSMGWYRQAPGKQRELVAGIVSDGRINYADSVKGRFTISRAKNTVYLQMNSLKPEDTAVYYCAADRAFVYAGDYDYLGQGTQVTVSS .
Output: < 0.2 nM

Data origin: patent US20250382355A1
